Biological target: β-lactoglobulin (LG, bovine) (Bos taurus, UniProt P02754)
Sequence (P02754 17-178 limits assumed): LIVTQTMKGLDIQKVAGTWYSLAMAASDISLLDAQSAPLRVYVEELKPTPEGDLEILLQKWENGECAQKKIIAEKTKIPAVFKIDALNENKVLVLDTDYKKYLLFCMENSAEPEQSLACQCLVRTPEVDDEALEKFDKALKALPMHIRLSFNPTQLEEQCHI
pKd: −log10 of the molar value.

cpdSmiles: C[C@H]1CCCC(=O)CCC/C=C/c2cc(O)cc(O)c2C(=O)O1
pKd: 3.05

###

Target: α1-acid glycoprotein (AGP) (Homo sapiens, UniProt P02763)
Sequence (P02763 19-201 limits assumed): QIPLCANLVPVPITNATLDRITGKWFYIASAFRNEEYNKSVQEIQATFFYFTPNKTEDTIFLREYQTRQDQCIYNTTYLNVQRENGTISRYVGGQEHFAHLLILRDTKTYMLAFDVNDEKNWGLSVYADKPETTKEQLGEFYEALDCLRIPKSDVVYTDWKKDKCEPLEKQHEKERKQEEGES
Assay: in vitro
Conditions: pH 7.4, logK ± SEM 1. (FL enhancement)

cpdSmiles: C[C@H]1CCCC(=O)CCC/C=C/c2cc(O)cc(O)c2C(=O)O1
measuredOn: α1-acid glycoprotein (AGP) (Homo sapiens, UniProt P02763)
Kd: 661 nM

###

Molecular target: α1-acid glycoprotein (AGP) (Homo sapiens)
Test: in vitro
Conditions: pH 7.4, logK FL Quenching
reportedEndpoint: Kd (nM)

cpdSmiles: C[C@H]1CCCC(=O)CCC/C=C/c2cc(O)cc(O)c2C(=O)O1
measuredValue: 1260

###

Target: α-lactalbumin (LA, bovine) (Bos taurus)
Sequence (P00711 20-142 limits assumed): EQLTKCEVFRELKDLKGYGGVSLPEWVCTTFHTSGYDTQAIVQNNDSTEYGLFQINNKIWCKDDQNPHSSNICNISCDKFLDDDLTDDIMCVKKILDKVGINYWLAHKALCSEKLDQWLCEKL
pKd: −log10 of the molar value.
reportedEndpoint: pKd

cpdSmiles: C[C@H]1CCCC(=O)CCC/C=C/c2cc(O)cc(O)c2C(=O)O1
measuredValue: 2.79

###

Target: α1-acid glycoprotein (AGP) (Homo sapiens, UniProt P02763)
Test: in vitro
Details: pH 7.4, logK ± SEM 1. (FL quenching)

cpdSmiles: C[C@H]1CCCC(=O)CCC/C=C/c2cc(O)cc(O)c2C(=O)O1
measuredOn: α1-acid glycoprotein (AGP) (Homo sapiens, UniProt P02763)
Kd: 1.35 µM

###

Biological target: α1-acid glycoprotein (AGP) (Homo sapiens, UniProt P02763)
Test: in vitro
Details: pH 7.4

cpdSmiles: C[C@H]1CCCC(=O)CCC/C=C/c2cc(O)cc(O)c2C(=O)O1
unitAbbreviation: nM
Kd: 372

###

Target: UniProt P02763
Test: in vitro
Conditions: pH 7.4, logK ± SEM 2. (FL enhancement)

compound: C[C@H]1CCCC(=O)CCC/C=C/c2cc(O)cc(O)c2C(=O)O1 [ZEN, zearalenone]
unitAbbreviation: nM
Kd: 407

src = paper PMC12031583
